# method: Toxicity in brine shrimp
# Assay type: organism-based
# applied conditions: artemia, in vivo

{"molecule": "CCCCCCCCCCCC[C@@H](O)[C@@H](O)CC[C@H](O)[C@@H]1CC[C@@H](CCC[C@@H](O)[C@H](O)CC[C@@H](O)CC2=C[C@H](C)OC2=O)O1 [MURIHEXOCIN]", "unit abbreviation": "µg/mL", "LC50": 10}
{"molecule": "CCCCCCCCCCCCC(=O)C[C@@H]1C[C@@H](O)[C@@H](CC[C@H](O)[C@@H]2CC[C@@H](CCCCC[C@@H](O)CC3=C[C@H](C)OC3=O)O2)O1", "unit abbreviation": "µg/mL", "LC50": 2.7}
{"molecule": "CCCCCCCCCC[C@@H](O)[C@H]1CC[C@H]([C@H]2CC[C@H]([C@H](O)CCCCC[C@@H](O)CCCCC3CC(CC(C)=O)C(=O)O3)O2)O1 (some centres undefined)", "unit abbreviation": "µg/mL", "LC50": 0.35}
{"molecule": "CCCCCCCCCCCC[C@H](O)[C@H](O)CC[C@H](O)[C@@H]1CC[C@@H](C[C@H](O)CCCCC[C@@H](O)CC2=C[C@H](C)OC2=O)O1", "unit abbreviation": "µg/mL", "LC50": 14}

====

# System: Blattella germanica
# method: Ratio of LT50 for Blattella germanica Muncie second instars to LT50 for Blattella germanica Jwax second instars
# Type: functional
Just a reminder that ties go to no (0): only Ratio strictly below 2 counts as yes (1).

{"molecule": "CNC(=O)Oc1ccccc1OC(C)C [PROPOXUR]", "assigned category": "no (0)"}
{"molecule": "CC1(C)CNC(=NN=C(/C=C/c2ccc(C(F)(F)F)cc2)/C=C/c2ccc(C(F)(F)F)cc2)NC1 [HYDRAMETHYLNON]", "assigned category": "yes (1)"}
{"molecule": "CCCCCCCCCC[C@H](O)[C@H]1CC[C@H]([C@H](O)CC[C@H](O)[C@@H]2CC[C@@H](CCCCCCC[C@@H](O)CC3=C[C@H](C)OC3=O)O2)O1 [BULLATALICIN]", "assigned category": "yes (1)"}
{"molecule": "CCCCCCCCCCC(O)C1CCC(C2CCC(C(O)CCCCCCCC[C@H](O)CC3=C[C@@H](C)OC3=O)O2)O1 (some centres not stated) [ASIMICIN]", "assigned category": "yes (1)"}
{"molecule": "CCOP(=S)(OCC)Oc1nc(Cl)c(Cl)cc1Cl [CHLORPYRIFOS]", "assigned category": "no (0)"}
{"molecule": "CCCCCCCCCCCC[C@H](O)[C@@H]1CC[C@@H]([C@@H](O)CCCCCCC(O)CCCCC[C@@H](O)CC2=C[C@H](C)OC2=O)O1 (some centres not stated) [ANNOMONTACIN]", "assigned category": "yes (1)"}
{"molecule": "CNC(=O)Oc1cccc2c1OC(C)(C)O2 [BENDIOCARB]", "assigned category": "no (0)"}

====

Each entry below carries its recorded ED50.
# Tested on: HT-29
# method: Cytotoxicity against human HT-29 cells
# Type: functional
quantity measured: ED50

{"molecule": "CCCCCCCCCC[C@H](O)[C@H](O)CCCC[C@H]1CC[C@H]([C@H]2CC[C@H]([C@H](O)CCCCC[C@@H](O)CC3=C[C@H](C)OC3=O)O2)O1", "result": "5.7 ×10⁻⁶ ug/ml"}
{"molecule": "CCCCCCCCCC[C@H](O)[C@@H](O)CCCC[C@H]1CC[C@H]([C@H]2CC[C@H]([C@H](O)CCCCC[C@@H](O)CC3=C[C@H](C)OC3=O)O2)O1 (stereo in doubt; 21) [GLACIN B]", "result": "8.7 ×10⁻² ug/ml"}
{"molecule": "CCCCCCCCCCCCCC[C@@H](O)[C@H]1CC[C@H]([C@H](O)CCCC[C@H](O)CCCCC[C@@H]2CC(CC(C)=O)C(=O)O2)O1 (mixture of isomers)", "result": "7.4 ×10⁻⁴ ug/ml"}
{"molecule": "CCCCCCCCCC[C@H](O)[C@@H](O)CCCC[C@H]1CC[C@H]([C@H]2CC[C@H]([C@H](O)CCCCC[C@@H](O)CC3=C[C@H](C)OC3=O)O2)O1 (stereo in doubt) [GLACIN B]", "result": "1.9 ×10⁻² ug/ml"}
